# TEST: Peptide stability in human serum
# Type: in vitro ADME
# CONDITION_SET: Time 1.00 (time unit inferred); human serum; mean, SD; read-out: peptide in human serum over time, mean
No end group written: not given here.
OBSERVATION_TYPE: remaining at 1 h, 300 μM (%)
Return type: number; implicit unit %.

response.value for KKPGASAAAAQAAQAAQAAQAAQAAQAAKKY [(P3-7)3 Ctrl] (field: remaining at 1 h, 300 μM) = 115

###

# TEST: Peptide stability in human serum
# Type: in vitro ADME
# CONDITION_SET: human serum (Sigma-Aldrich), 1.5 mM peptide in 20 mM sodium phosphate pH 7.4 diluted 1:9, final 300 μM, 310 K, 24 h; methanol precipitation; HPLC peak area of intact peptide vs t = 0; three independent replicates
No end group written: not given here.
Some sequences, each annotated with its measured half-life at 300 μM.

KKPGASLAALQALQALQALQALQAAQAAKKY [(P3-7)3] :: > 24 h

Now examine the next entry.
response.value for KKPGASAAAAQAAQAAQAAQAAQAAQAAKKY [(P3-7)3 Ctrl] (field: half-life at 300 μM) = > 24 h

###

# TEST: Peptide stability in human serum
# Type: in vitro ADME
# CONDITION_SET: Time 0.50 (time unit inferred); human serum; mean, SD; read-out: peptide in human serum over time, mean
No end group written: not given here.
OBSERVATION_TYPE: remaining at 0.5 h, 300 μM (%)
Return type: number; implicit unit %.

response.value for KKPGASAAAAQAAQAAQAAQAAQAAQAAKKY [(P3-7)3 Ctrl] (field: remaining at 0.5 h, 300 μM) = 114

Origin of measurements: paper PMC9674830
